Across several studies, molecules have been characterized by their pIC50 on Histone deacetylase 8 (Homo sapiens, UniProt Q9BY41); a selection follows.
Target: Histone deacetylase 8 (Homo sapiens, UniProt Q9BY41)
Sequence (Q9BY41 whole entry): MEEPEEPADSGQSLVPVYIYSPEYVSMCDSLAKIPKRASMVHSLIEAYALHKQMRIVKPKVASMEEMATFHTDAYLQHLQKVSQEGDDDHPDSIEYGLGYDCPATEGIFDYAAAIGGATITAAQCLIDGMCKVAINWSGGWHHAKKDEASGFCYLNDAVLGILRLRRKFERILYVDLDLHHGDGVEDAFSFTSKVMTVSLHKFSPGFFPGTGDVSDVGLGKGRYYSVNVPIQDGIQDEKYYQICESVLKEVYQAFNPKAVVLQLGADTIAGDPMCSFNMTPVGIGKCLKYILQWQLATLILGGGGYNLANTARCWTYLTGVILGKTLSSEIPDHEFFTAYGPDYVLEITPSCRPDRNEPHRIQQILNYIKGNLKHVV
pIC50: −log10 of the molar value.
assay-endpoint: pIC50

In [3]: df
Out[3]:
                            structure_smiles                       experimental_system  assay_result
 0  O=C(NO)c1ccc(CN(Cc2cccnc2)S(=O)(=O)c2cc(F)c(F)c(F)c2F)cc1  Histone deacetylase 8 (Homo sapiens, UniProt Q9BY41)          7.50
 1  CCCNNC(=O)CCCCCCNC(=O)c1cnc(-c2ccc3ccccc3c2)s1  Histone deacetylase 8 (Homo sapiens, UniProt Q9BY41)        < 5.00
 2  CCCNNC(=O)CCCCCCNC(=O)c1cnc(-c2ccc(Br)cc2)s1  Histone deacetylase 8 (Homo sapiens, UniProt Q9BY41)        < 5.00
 3  CCCNNC(=O)CCCCCNC(=O)c1cnc(-c2ccc(Oc3ccccc3)cc2)s1  Histone deacetylase 8 (Homo sapiens, UniProt Q9BY41)        < 5.00
 4  CCCNNC(=O)CCCCCCNC(=O)c1cnc(-c2ccc3[nH]ccc3c2)s1  Histone deacetylase 8 (Homo sapiens, UniProt Q9BY41)        < 5.00
 5  Cc1c(F)c(N)cc(C(=O)Nc2cc(-c3ccc(NC(=O)CCCCCCC(=O)NO)cc3)ccc2N2CCN(C)CC2)c1Cl  Histone deacetylase 8 (Homo sapiens, UniProt Q9BY41)        < 5.00
 6  CCCNNC(=O)CCCCCCNC(=O)c1cnc(-c2ccc(F)cc2F)s1  Histone deacetylase 8 (Homo sapiens, UniProt Q9BY41)        < 5.00
 7  O=C(Cc1ccc(/C=C/C(=O)c2ncc[nH]2)cc1)Nc1ccc(F)cc1  Histone deacetylase 8 (Homo sapiens, UniProt Q9BY41)          5.85
 8  CCCNNC(=O)c1ccc(NC(=O)c2cnc(-c3ccc(OC(F)(F)F)cc3)s2)cc1  Histone deacetylase 8 (Homo sapiens, UniProt Q9BY41)        < 5.00
 9  CCCNNC(=O)CCCCCCNC(=O)c1cnc(-c2ccc(Oc3ccccc3)cc2)s1  Histone deacetylase 8 (Homo sapiens, UniProt Q9BY41)        < 5.00
10  CCCNNC(=O)c1ccc(NC(=O)c2cnc(-c3cc4ccc5cccc6ccc(c3)c4c56)s2)cc1  Histone deacetylase 8 (Homo sapiens, UniProt Q9BY41)        < 5.00
